# Study target: Nuclear receptor subfamily 4 group A member 2 (Homo sapiens) (UniProt P43354)
# Sequence (P43354 whole entry, looked up): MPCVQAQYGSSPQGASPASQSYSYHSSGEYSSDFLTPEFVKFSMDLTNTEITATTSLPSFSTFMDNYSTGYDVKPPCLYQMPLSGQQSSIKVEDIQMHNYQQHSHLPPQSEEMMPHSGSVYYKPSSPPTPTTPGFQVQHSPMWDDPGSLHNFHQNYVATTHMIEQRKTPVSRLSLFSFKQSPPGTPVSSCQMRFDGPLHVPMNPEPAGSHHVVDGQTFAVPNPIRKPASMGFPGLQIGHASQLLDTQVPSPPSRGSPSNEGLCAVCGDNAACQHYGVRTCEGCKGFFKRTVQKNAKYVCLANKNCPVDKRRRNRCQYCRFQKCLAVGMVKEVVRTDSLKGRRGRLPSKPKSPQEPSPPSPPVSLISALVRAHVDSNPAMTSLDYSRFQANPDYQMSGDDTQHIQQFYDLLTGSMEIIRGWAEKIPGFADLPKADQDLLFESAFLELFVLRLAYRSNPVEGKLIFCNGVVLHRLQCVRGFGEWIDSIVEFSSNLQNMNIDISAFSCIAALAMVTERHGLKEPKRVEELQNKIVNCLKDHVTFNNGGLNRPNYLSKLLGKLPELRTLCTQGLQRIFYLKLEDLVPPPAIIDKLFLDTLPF
# Protocol summary: ATG_NURR1_TRANS: Attagene TRANS-FACTORIAL HepG2 Assay for human Nuclear Receptor Related Protein 1 (NURR1) (AID 2282985)
# Condition context: HepG2 Attagene TRANS reporter, mRNA readout
Results filed as inconclusive are left out. The source made the active and inactive calls. Rule for the calls: active = hit-call score of the fitted dose curve at least 0.9, where 1 is the maximum; inconclusive = response in the unintended direction; inactive = score below 0.9.
Log the outcome using a class from TRUE = active, FALSE = inactive

stdin: Look up the recorded call for O=CCc1ccccc1 in this test.
stdout: FALSE

stdin: # lookup: test call for C1CCOC1
stdout: FALSE

stdin: Which outcome was entered for the compound O=C(CS)OCCOC(=O)CS in this test?
stdout: TRUE

stdin: Recorded test call requested for CCOC(=O)C1OC1c1ccccc1 (configuration not stated)
stdout: FALSE

stdin: Each compound tested received a call. Report the one for CCCCOC(=O)CCCCCCCC(=O)OCCCC .
stdout: FALSE

stdin: Hi, do you know how CCCCOCC came out in this test?
stdout: FALSE

stdin: What is the recorded call for this compound in the test? CC1(C)O[C@@H]2C[C@H]3[C@@H]4CCC5=CC(=O)C=C[C@]5(C)[C@@]4(F)[C@@H](O)C[C@]3(C)[C@]2(C(=O)CO)O1
stdout: FALSE

---

# Protocol summary: ATG_FoxO_CIS: Attagene CIS-FACTORIAL HepG2 Assay for human Forkhead box O (FoxO) (AID 2282943)
# Condition context: HepG2 Attagene cis-reporter, FoxO element, mRNA; actives raise or lower the signal
The source made the active and inactive calls. How the source made its calls: active means hit-call score of the fitted dose curve at least 0.9, where 1 is the maximum; inactive means score below 0.9.
Pick one and only one: active, inactive

stdin: # fetch the recorded call for CS(=O)(=O)OCCCCOS(C)(=O)=O here
stdout: inactive

stdin: So what was the verdict on CCCC(=O)OCCc1ccccc1 in this test?
stdout: inactive

stdin: Recorded test call requested for COC(=O)c1ccc(OC)cc1
stdout: inactive

stdin: Called result for O=C(CC(=O)c1ccccc1)c1ccccc1
stdout: inactive

stdin: Please let me know the test result on file for CCCCCCCCCCCCCC(=O)OCC(O)CO (stereo not drawn) .
stdout: inactive

stdin: # outcome recorded in this test, key = C=CC(=O)OCCC#N
stdout: active

stdin: Which outcome was assigned to CC(=O)NCCO in this test?
stdout: inactive

stdin: What did this assay record as the result for CCCCCCOC(=O)CCC ?
stdout: inactive

---

# Protocol summary: ATG_TGFb_CIS: Attagene CIS-FACTORIAL HepG2 Assay for human Transforming Growth Factor (TGF) (AID 2282967)
# Condition context: HepG2 Attagene CIS TGFb reporter, mRNA transcription; actives raise or lower the signal
Active and inactive are the calls of the source. Rule for the calls: active = hit-call score of the fitted dose curve at least 0.9, where 1 is the maximum; inactive = score below 0.9.
Outcome field: choose from true (1) for active, false (0) for inactive

stdin: Which result was noted for this compound in the test: Cc1[nH]c(=O)c(C#N)cc1-c1ccncc1
stdout: false (0)

stdin: Returns: the outcome recorded for CCOC(=O)[C@@H](C)Oc1ccc(Oc2nc3ccc(Cl)cc3o2)cc1 in this assay.
stdout: false (0)

stdin: Lab log entry: OCc1ccc(Cl)cc1Cl — outcome as called in the assay?
stdout: false (0)

stdin: Per the assay record, what outcome was assigned to FC(F)(F)COCC(F)(F)F ?
stdout: false (0)

stdin: Given COCCOC(=O)c1ccccc1C(=O)OCCOC , state the outcome it received in this test.
stdout: false (0)

stdin: Short answer needed: outcome of this test for C[Si]1(C)O[Si](C)(C)O[Si](C)(C)O1 ?
stdout: false (0)

stdin: Lab log entry: CCCCCCC(CO)CCCC (configuration not stated) — outcome as called in the assay?
stdout: false (0)

stdin: Fill in: this test's call for CC(C)(C)c1ccc(C(=O)O)cc1 is ___
stdout: false (0)

stdin: Please indicate how the test categorized CCCC(=O)OC(C)(C)Cc1ccccc1 .
stdout: false (0)

stdin: What call does the record list for CCCOCCO ?
stdout: false (0)

stdin: Any idea what this test logged for Oc1c(Cl)cc(Cl)c(Cl)c1Cc1c(O)c(Cl)cc(Cl)c1Cl ?
stdout: false (0)

stdin: Which outcome did this test record for the compound Nc1c(S(=O)(=O)O)cc(Br)c2c1C(=O)c1ccccc1C2=O ?
stdout: false (0)

stdin: Dear all, I need the recorded test outcome for OC[C@H]1O[C@@H]2O[C@H]3[C@H](O)[C@@H](O)[C@@H](O[C@H]4[C@H](O)[C@@H](O)[C@@H](O[C@H]5[C@H](O)[C@@H](O)[C@@H](O[C@H]6[C@H](O)[C@@H](O)[C@@H](O[C@H]7[C@H](O)[C@@H](O)[C@@H](O[C@H]8[C@H](O)[C@@H](O)[C@@H](O[C@H]9[C@H](O)[C@@H](O)[C@@H](O[C@H]1[C@H](O)[C@H]2O)O[C@@H]9CO)O[C@@H]8CO)O[C@@H]7CO)O[C@@H]6CO)O[C@@H]5CO)O[C@@H]4CO)O[C@@H]3CO , thank you.
stdout: false (0)

stdin: Returns: the outcome recorded for CC(=O)NCCO in this assay.
stdout: false (0)

stdin: What classification did O=C1OC(=O)c2c(Cl)c(Cl)c(Cl)c(Cl)c21 end up with in this test?
stdout: false (0)

stdin: Record lookup: outcome of this test for Nc1ccc2cc(S(=O)(=O)O)cc(O)c2c1N=Nc1ccccc1C(F)(F)F ?
stdout: false (0)

stdin: Could you please tell me the result logged for CCCCCCCC(=O)OCCCCCC in this assay?
stdout: false (0)

stdin: Identify the outcome logged in this assay for the compound shown: O=C1OC2(c3ccccc31)c1ccc(O)c(Br)c1Oc1c2ccc(O)c1Br
stdout: false (0)

stdin: How was COCCc1ccc(OCC(O)CNC(C)C)cc1 (configuration not stated) classified in this test?
stdout: false (0)

stdin: Just curious, what result did O=CCc1ccccc1 get here?
stdout: false (0)

stdin: # lookup: test call for Cc1ccc(S(=O)(=O)Oc2ccc(N=Nc3ccc(-c4ccc(N=Nc5c(O)ccc6cc(S(=O)(=O)O)cc(S(=O)(=O)O)c56)c(C)c4)cc3C)cc2)cc1
stdout: true (1)

stdin: Outcome? CC1(C)CCC[C@]2(C)[C@H]3CCO[C@]3(C)CC[C@@H]12
stdout: false (0)

---

# Protocol summary: ATG_E_Box_CIS: Attagene CIS-FACTORIAL HepG2 Assay for human Enhancer Box (E-box) (AID 2282936)
# Condition context: HepG2 E-box cis-reporter transcription, actives raise or lower the signal
The source made the active and inactive calls. How the source made its calls: active means hit-call score of the fitted dose curve at least 0.9, where 1 is the maximum; inactive means score below 0.9.
A correct response names exactly one class from active, inactive

stdin: What is the recorded call for this compound in the test? CN(C)CCOC(C)(c1ccccc1)c1ccccn1 (configuration not stated)
stdout: inactive

stdin: What classification did CC(C=O)Cc1ccc(C(C)(C)C)cc1 (configuration not stated) end up with in this test?
stdout: inactive

stdin: Test call, this compound: CCCOC(=O)c1c(Cl)c(Cl)c(Cl)c(Cl)c1C(=O)OCCC
stdout: inactive

stdin: What outcome does the record of this test show for [Cl][Au]([Cl])[Cl] ?
stdout: inactive

stdin: Recorded call for C[C@H]1C[C@@H](O)CC(C)(C)C1 ?
stdout: inactive

stdin: What was the test verdict on Nc1ccc(Cl)c([N+](=O)[O-])c1 ?
stdout: inactive

stdin: Identify the outcome logged in this assay for the compound shown: Oc1c(Cl)cc(Cl)c(Cl)c1Cc1c(O)c(Cl)cc(Cl)c1Cl
stdout: inactive

stdin: What was the test verdict on CC(C)(N=C=O)c1cccc(C(C)(C)N=C=O)c1 ?
stdout: inactive

stdin: Hi, do you know how CCCCCCC(=O)c1ccccc1 came out in this test?
stdout: inactive

stdin: Field: outcome | Entry: O=C1c2ccccc2C(=O)c2c(O)ccc(O)c21
stdout: active

stdin: Can you look up the reported call for CC1(C)O[C@@H]2C[C@H]3[C@@H]4CCC5=CC(=O)C=C[C@]5(C)[C@@]4(F)[C@@H](O)C[C@]3(C)[C@]2(C(=O)CO)O1 for me?
stdout: inactive

stdin: What did the test return for Cc1c(OCC(F)(F)F)ccnc1CS(=O)c1nc2ccccc2[nH]1 (configuration not stated) ?
stdout: inactive

stdin: What call does the record list for OC[C@H]1O[C@@H]2O[C@H]3[C@H](O)[C@@H](O)[C@@H](O[C@H]4[C@H](O)[C@@H](O)[C@@H](O[C@H]5[C@H](O)[C@@H](O)[C@@H](O[C@H]6[C@H](O)[C@@H](O)[C@@H](O[C@H]7[C@H](O)[C@@H](O)[C@@H](O[C@H]8[C@H](O)[C@@H](O)[C@@H](O[C@H]9[C@H](O)[C@@H](O)[C@@H](O[C@H]1[C@H](O)[C@H]2O)O[C@@H]9CO)O[C@@H]8CO)O[C@@H]7CO)O[C@@H]6CO)O[C@@H]5CO)O[C@@H]4CO)O[C@@H]3CO ?
stdout: inactive

stdin: Test call, this compound: CC[N+](C)(CC)CC
stdout: inactive

stdin: I'd appreciate the recorded outcome for CCCCCCCCSCCO from this test.
stdout: inactive

stdin: Record request — test call for CCCCCCC(C)Nc1ccc(Nc2ccccc2)cc1 (configuration not stated)
stdout: inactive

stdin: Assay outcome for CC(O)C1CCCCC1 (configuration not stated) : what was it?
stdout: inactive

stdin: What call does the record list for CCOC(=O)[C@@H](C)Oc1ccc(Oc2nc3ccc(Cl)cc3o2)cc1 ?
stdout: inactive

stdin: Outcome? CCCCC(CC)(CO)CO
stdout: inactive

stdin: # lookup: test call for CC1CC(O)CC(C)(C)C1 (configuration not stated)
stdout: inactive

stdin: Recorded call for CC1CCC(C(C)C)C(O)C1 (configuration not stated) ?
stdout: inactive

stdin: Record lookup: outcome of this test for CCCCCCC(O)CCCCCCCCCCC(=O)O (configuration not stated) ?
stdout: inactive

// provenance: PubChem BioAssay (EPA / NIEHS)
